- experiment.notes: Residue neutralization: recovery and breakdown of pesticide and fungicide active ingredients after exposure to anolyte dilutions
- Type: physicochemical
- test.context: 0.25% Brine (nonactivated control), 5 minutes, ambient temperature
Exercise: for every item that follows, state its recorded ng found.

Check out these entries, answers already filled in.
CCCCc1c(C)nc(NCC)nc1OS(=O)(=O)N(C)C [Bupirimate]	1.250 ng
CNC(=O)O/N=C/C(C)(C)[S+](C)[O-] (stereo not shown) [Aldicarb sulfoxide]	0.672 ng
CCOC(=O)CC(SP(=S)(OC)OC)C(=O)OCC (stereo not shown)	1,327 ng

Record ng found for all entries; do not skip any.
1. Cc1cc(C2CC2)nc(Nc2ccccc2)n1
2. CNC(=O)O/N=C/C(C)(C)SC
3. CCOP(=S)(OCC)Oc1nc(Cl)c(Cl)cc1Cl
4. COP(=S)(OC)SCn1nnc2ccccc2c1=O
5. CNC(=O)ON=C(C)SC
6. CCCCNC(=O)n1c(NC(=O)OC)nc2ccccc21
7. CO/N=C(/C(=O)OC)c1ccccc1COc1ccccc1C

1.297 ng
0.920 ng
1.014 ng
2.341 ng
1.006 ng
0.970 ng
1.300 ng

====

- experiment.notes: Residue neutralization: recovery and breakdown of pesticide and fungicide active ingredients after exposure to anolyte dilutions
- Format: physicochemical
- test.context: 1% Anolyte solution, 5 minutes, ambient temperature
property.measured: % breakdown (%)
Give bare numbers, in %.

CCCCNC(=O)n1c(NC(=O)OC)nc2ccccc21	8.0
CNC(=O)O/N=C/C(C)(C)SC	49.5
CO/N=C(/C(=O)OC)c1ccccc1COc1ccccc1C	0.0
CCCCc1c(C)nc(NCC)nc1OS(=O)(=O)N(C)C [Bupirimate]	0.0
CNC(=O)O/N=C/C(C)(C)[S+](C)[O-] (stereo not shown) [Aldicarb sulfoxide]	15.8

Record % breakdown for all entries; do not skip any.
1. Cc1cc(C2CC2)nc(Nc2ccccc2)n1
2. CCOC(=O)CC(SP(=S)(OC)OC)C(=O)OCC (stereo not shown)
3. CCOP(=S)(OCC)Oc1nc(Cl)c(Cl)cc1Cl
4. CNC(=O)ON=C(C)SC
5. COP(=S)(OC)SCn1nnc2ccccc2c1=O

[0.0, 0.0, 0.0, 36.6, 0.0]

====

- experiment.notes: Residue neutralization: recovery and breakdown of pesticide and fungicide active ingredients after exposure to anolyte dilutions
- Type: physicochemical
- test.context: 10% anolyte solution, 5 minutes, ambient temperature
Exercise: for every item that follows, state its recorded % breakdown.
# answer = value followed by unit

Check out these entries, answers already filled in.
Cc1cc(C2CC2)nc(Nc2ccccc2)n1	96.3%
CCOP(=S)(OCC)Oc1nc(Cl)c(Cl)cc1Cl	100%
CCOC(=O)CC(SP(=S)(OC)OC)C(=O)OCC (stereo not shown)	100%

Record % breakdown for all entries; do not skip any.
1. COP(=S)(OC)SCn1nnc2ccccc2c1=O
2. CCCCNC(=O)n1c(NC(=O)OC)nc2ccccc21
3. CCCCc1c(C)nc(NCC)nc1OS(=O)(=O)N(C)C [Bupirimate]

1: 100%; 2: 45%; 3: 52.0%

Record % breakdown for all entries; do not skip any.
1. CNC(=O)O/N=C/C(C)(C)SC
2. CNC(=O)O/N=C/C(C)(C)[S+](C)[O-] (stereo not shown) [Aldicarb sulfoxide]
3. CNC(=O)ON=C(C)SC
4. CO/N=C(/C(=O)OC)c1ccccc1COc1ccccc1C

["100%", "100%", "100%", "0.0%"]

====

- experiment.notes: Residue neutralization: recovery and breakdown of pesticide and fungicide active ingredients after exposure to anolyte dilutions
- Assay type: physicochemical
- test.context: 100% anolyte solution, 5 minutes, ambient temperature
property.measured: ng found

Check out these entries, answers already filled in.
CCOP(=S)(OCC)Oc1nc(Cl)c(Cl)cc1Cl	0.049 ng
CCCCc1c(C)nc(NCC)nc1OS(=O)(=O)N(C)C [Bupirimate]	0.074 ng
CCOC(=O)CC(SP(=S)(OC)OC)C(=O)OCC (stereo not shown)	0.067 ng
CNC(=O)ON=C(C)SC	0.000 ng
CO/N=C(/C(=O)OC)c1ccccc1COc1ccccc1C	0.035 ng
CNC(=O)O/N=C/C(C)(C)[S+](C)[O-] (stereo not shown) [Aldicarb sulfoxide]	0.000 ng
COP(=S)(OC)SCn1nnc2ccccc2c1=O	0.000 ng
CNC(=O)O/N=C/C(C)(C)SC	0.000 ng

Record ng found for all entries; do not skip any.
1. Cc1cc(C2CC2)nc(Nc2ccccc2)n1
2. CCCCNC(=O)n1c(NC(=O)OC)nc2ccccc21

1. 0.026 ng
2. 0.000 ng

====

Exercise: for every item that follows, state its recorded % breakdown.
- experiment.notes: Residue neutralization: recovery and breakdown of pesticide and fungicide active ingredients after exposure to anolyte dilutions
- Type: physicochemical
- test.context: 100% anolyte solution, 5 minutes, ambient temperature
Numbers only, in %.

Check out these entries, answers already filled in.
CNC(=O)O/N=C/C(C)(C)[S+](C)[O-] (stereo not shown) [Aldicarb sulfoxide]	100
COP(=S)(OC)SCn1nnc2ccccc2c1=O	100
CCOP(=S)(OCC)Oc1nc(Cl)c(Cl)cc1Cl	100
CCCCc1c(C)nc(NCC)nc1OS(=O)(=O)N(C)C [Bupirimate]	100
Cc1cc(C2CC2)nc(Nc2ccccc2)n1	100

Record % breakdown for all entries; do not skip any.
1. CO/N=C(/C(=O)OC)c1ccccc1COc1ccccc1C
2. CNC(=O)ON=C(C)SC
3. CNC(=O)O/N=C/C(C)(C)SC
4. CCCCNC(=O)n1c(NC(=O)OC)nc2ccccc21
5. CCOC(=O)CC(SP(=S)(OC)OC)C(=O)OCC (stereo not shown)

1: 100; 2: 100; 3: 100; 4: 100; 5: 100

====

- experiment.notes: Residue neutralization: recovery and breakdown of pesticide and fungicide active ingredients after exposure to anolyte dilutions
- Assay type: physicochemical
- test.context: 1% Anolyte solution, 5 minutes, ambient temperature
So basically: is ng found under 0.9 ng? Then 1. Not under? Then 0.

Record excerpt, results attached:
CNC(=O)O/N=C/C(C)(C)[S+](C)[O-] (stereo not shown) [Aldicarb sulfoxide]	1
CNC(=O)O/N=C/C(C)(C)SC	1
CCOP(=S)(OCC)Oc1nc(Cl)c(Cl)cc1Cl	0
CNC(=O)ON=C(C)SC	1
COP(=S)(OC)SCn1nnc2ccccc2c1=O	0

Dear colleague, could you confirm whether ng found of `CO/N=C(/C(=O)OC)c1ccccc1COc1ccccc1C` falls below 0.9 ng? Thanks. 0

Dear colleague, could you confirm whether ng found of `Cc1cc(C2CC2)nc(Nc2ccccc2)n1` falls below 0.9 ng? Thanks. 0

Dear colleague, could you confirm whether ng found of CCCCc1c(C)nc(NCC)nc1OS(=O)(=O)N(C)C [Bupirimate] falls below 0.9 ng? Thanks. 0

Dear colleague, could you confirm whether ng found of CCOC(=O)CC(SP(=S)(OC)OC)C(=O)OCC (stereo not shown) falls below 0.9 ng? Thanks. 0
